# test-details: Risdiplam solubility data
# Assay type: physicochemical
# measurement-setup: ethanol, organic solvent or mixture, solvent: ethanol; read-out: Solubility in ethanol
experimental-endpoint: solubility (µg/mL)
The figure you give is taken to be in µg/mL; do not add the unit.

# solubility (compound: Cc1cn2nc(-c3cc(=O)n4cc(N5CCNC6(CC6)C5)ccc4n3)cc(C)c2n1 ) is 1300

----------
# test-details: Risdiplam solubility data
# Format: physicochemical
# measurement-setup: water, solvent: water; read-out: Solubility in water
experimental-endpoint: solubility
Report field: quantity (unit follows the number).

# solubility (compound: Cc1cn2nc(-c3cc(=O)n4cc(N5CCNC6(CC6)C5)ccc4n3)cc(C)c2n1 ) is 3 µg/mL
